- EXPERIMENTAL_TARGET: Angiotensin-converting enzyme (Oryctolagus cuniculus)
- Sequence (P12822 whole entry): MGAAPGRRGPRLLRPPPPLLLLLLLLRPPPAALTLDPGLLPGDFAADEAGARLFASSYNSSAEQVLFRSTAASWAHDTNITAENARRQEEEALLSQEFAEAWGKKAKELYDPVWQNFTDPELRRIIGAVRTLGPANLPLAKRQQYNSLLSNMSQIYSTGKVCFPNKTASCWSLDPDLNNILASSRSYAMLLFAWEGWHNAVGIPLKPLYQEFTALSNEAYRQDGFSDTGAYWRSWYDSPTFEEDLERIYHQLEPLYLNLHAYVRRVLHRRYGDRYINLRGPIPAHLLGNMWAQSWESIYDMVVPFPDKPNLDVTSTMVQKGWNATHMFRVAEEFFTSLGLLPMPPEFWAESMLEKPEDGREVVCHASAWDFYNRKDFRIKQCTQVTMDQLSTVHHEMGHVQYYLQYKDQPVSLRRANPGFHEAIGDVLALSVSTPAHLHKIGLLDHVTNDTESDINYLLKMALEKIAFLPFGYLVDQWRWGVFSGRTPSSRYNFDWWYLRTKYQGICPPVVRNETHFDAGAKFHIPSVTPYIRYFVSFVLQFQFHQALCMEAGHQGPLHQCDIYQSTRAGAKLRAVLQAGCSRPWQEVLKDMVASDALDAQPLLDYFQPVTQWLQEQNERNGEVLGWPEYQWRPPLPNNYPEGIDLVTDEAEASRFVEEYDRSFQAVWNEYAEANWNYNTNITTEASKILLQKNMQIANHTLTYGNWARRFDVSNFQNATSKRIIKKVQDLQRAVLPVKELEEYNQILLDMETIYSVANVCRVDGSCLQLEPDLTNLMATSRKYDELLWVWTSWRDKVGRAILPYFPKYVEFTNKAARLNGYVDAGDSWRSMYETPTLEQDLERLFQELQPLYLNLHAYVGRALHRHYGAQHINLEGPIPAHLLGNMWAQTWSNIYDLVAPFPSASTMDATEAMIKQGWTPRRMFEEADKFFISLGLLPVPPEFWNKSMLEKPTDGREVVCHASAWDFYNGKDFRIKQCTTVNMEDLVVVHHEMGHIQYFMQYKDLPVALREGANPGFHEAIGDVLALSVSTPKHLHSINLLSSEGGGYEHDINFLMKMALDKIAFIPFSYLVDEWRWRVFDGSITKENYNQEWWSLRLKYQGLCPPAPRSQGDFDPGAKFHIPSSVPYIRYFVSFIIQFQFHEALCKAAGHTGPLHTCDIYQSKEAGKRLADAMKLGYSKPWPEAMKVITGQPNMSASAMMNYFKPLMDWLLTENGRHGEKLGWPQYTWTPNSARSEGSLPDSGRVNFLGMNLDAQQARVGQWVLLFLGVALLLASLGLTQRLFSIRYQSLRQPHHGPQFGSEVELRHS
RECORDED_ENDPOINT: pIC50
One number for each entry, as −log10 of the molar value.

For orientation, consider the following solved cases.
CCOC(=O)[C@@H](CCC(=O)N1c2ccccc2C[C@H]1C(=O)O)NC(=O)c1cccnc1 | 5.66
O=C(N[C@H](CCC(=O)N1c2ccccc2C[C@H]1C(=O)O)C(=O)O)c1ccccc1 | 7.55
O=C(O)[C@@H](CCC(=O)N1c2ccccc2C[C@H]1C(=O)O)NS(=O)(=O)Cc1ccccc1 | 7.54
O=C(N[C@@H](CCC(=O)N1c2ccccc2CC1C(=O)O)C(=O)O)OCc1ccccc1 (some centres undefined) | 6.30
Cc1ccc(S(=O)(=O)N[C@H](CCC(=O)N2c3ccccc3C[C@H]2C(=O)O)C(=O)O)cc1 | 7.70

Each of the following entries comes with a recorded value; kindly state pIC50 for each.
1. O=C(O)[C@@H](CCC(=O)N1c2ccccc2C[C@H]1C(=O)O)N(Cc1ccccc1)C(=O)OCc1ccccc1
2. O=C(O)CN(C(=O)CC[C@@H](NC(=O)OCc1ccccc1)C(=O)O)C1CCCC1
3. O=C(CCc1ccccc1)N[C@H](CCC(=O)N1c2ccccc2C[C@H]1C(=O)O)C(=O)O
4. O=C(Nc1ccccc1)N[C@H](CCC(=O)N1c2ccccc2C[C@H]1C(=O)O)C(=O)O

*A*
[5.00, 7.40, 7.40, 7.36]

Answer for every listed entry: what is its pIC50? The entries follow.
1. CC(=O)N[C@H](CCC(=O)N1c2ccccc2C[C@H]1C(=O)O)C(=O)O
2. NCCCCC(N)C(=O)N[C@H](CCC(=O)N1c2ccccc2C[C@H]1C(=O)O)C(=O)O (some centres undefined)

*A*
[7.02, 6.73]

Please report pIC50 for every entry that follows.
1. COc1ccc(N(CC(=O)O)C(=O)CC[C@@H](NC(=O)OCc2ccccc2)C(=O)O)cc1OC
2. O=C(N[C@H](CCC(=O)N1Cc2ccccc2C[C@H]1C(=O)O)C(=O)O)OCc1ccccc1
3. O=C(N[C@H](CCC(=O)N1c2ccccc2C[C@H]1C(=O)O)C(=O)O)c1ccccn1

*A*
1. 7.68
2. 7.85
3. 7.24
